- Tested on: Candida albicans
- run parameters: 32 ug/mL
- Description: Antifungal activity against Candida albicans ATCC 90028 (CO-ADD:FG_001); MIC in YNB media using NBS plates, by OD630
Entries with a potency or affinity are not part of this list.
reported property: Inhibition (%)
Write it as a number; the unit % goes unstated.

Query block: Supply Inhibition value. Item: O=[N+]([O-])c1ccc(-c2ccccc2Nc2ccccc2)c(Cl)c1
Result block: 10.1

Query block: Supply Inhibition value. Item: Cc1cc([N+](=O)[O-])ccc1-c1ccccc1N(C)c1ccccc1
Result block: 5.96

Query block: Supply Inhibition value. Item: COc1cc([N+](=O)[O-])ccc1-c1ccccc1Nc1ccccc1
Result block: 5.71

###

- System: Cryptococcus neoformans
- run parameters: Concentration 32 ug.mL-1; ASSAY_TEST Inhibition of Fungal Growth; detection method Resazurin; Absorption (OD600-OD570); plate type 384well; NBS; CORNING #3640
- Description: Antifungal activity against Cryptococcus neoformans H99 ATCC 208821 (CO-ADD:FG_002); MIC in YNB media using NBS plates, by Resazurin OD(600-570)
Potency and affinity values are given separately.
reported property: Inhibition (%)
Write it as a number; the unit % goes unstated.

Query block: Enter measured Inhibition, system Cryptococcus neoformans, for the compound shown: Clc1cc(Br)cc(Cl)c1-c1ccccc1Nc1ccccc1
Result block: 2.48

Query block: Enter measured Inhibition, system Cryptococcus neoformans, for the compound shown: COc1cccc(N(C)c2cccc(OC)c2-c2ccc([N+](=O)[O-])cc2C)c1
Result block: -0.6

Query block: Enter measured Inhibition, system Cryptococcus neoformans, for the compound shown: Cc1cc([N+](=O)[O-])ccc1-c1ccccc1N(C)c1ccccc1
Result block: -0.44

Query block: Enter measured Inhibition, system Cryptococcus neoformans, for the compound shown: O=[N+]([O-])c1ccc(-c2ccccc2Nc2ccccc2)c(Cl)c1
Result block: 1.38

Query block: Enter measured Inhibition, system Cryptococcus neoformans, for the compound shown: Cc1cccc(C)c1Nc1ccccc1-c1ccccc1[N+](=O)[O-]
Result block: 4.1

Query block: Enter measured Inhibition, system Cryptococcus neoformans, for the compound shown: O=[N+]([O-])c1ccc(-c2ccccc2Nc2ccccc2)cc1C(F)(F)F
Result block: 2.9

Query block: Enter measured Inhibition, system Cryptococcus neoformans, for the compound shown: COc1ccc(Nc2ccccc2-c2ccc([N+](=O)[O-])cc2)cc1
Result block: 2.27

Query block: Enter measured Inhibition, system Cryptococcus neoformans, for the compound shown: COc1cccc(Nc2ccccc2)c1-c1ccc([N+](=O)[O-])cc1
Result block: 1.49

Query block: Enter measured Inhibition, system Cryptococcus neoformans, for the compound shown: N#Cc1ccc(-c2ccccc2Nc2ccccc2)cc1
Result block: 2.95

Query block: Enter measured Inhibition, system Cryptococcus neoformans, for the compound shown: O=[N+]([O-])c1ccc(-c2c(Nc3ccccc3)cccc2-c2ccccc2)cc1
Result block: 2.38

Query block: Enter measured Inhibition, system Cryptococcus neoformans, for the compound shown: CC[C@@H](Nc1ccccc1-c1c(Cl)cc(Br)cc1Cl)c1ccccc1
Result block: 0.76

Query block: Enter measured Inhibition, system Cryptococcus neoformans, for the compound shown: O=[N+]([O-])c1ccc(-c2ccccc2N(Cc2ccccc2)c2ccccc2)cc1
Result block: 2.22

Query block: Enter measured Inhibition, system Cryptococcus neoformans, for the compound shown: CN(c1ccccc1)c1ccccc1-c1ccc([N+](=O)[O-])cc1
Result block: 1.49

Query block: Enter measured Inhibition, system Cryptococcus neoformans, for the compound shown: O=[N+]([O-])c1ccc(-c2c(Nc3ccccc3)ccc3ccccc23)cc1
Result block: 0.54

Query block: Enter measured Inhibition, system Cryptococcus neoformans, for the compound shown: COc1cccc(Nc2ccccc2)c1-c1c(Cl)cc(Br)cc1Cl
Result block: 9.7

Query block: Enter measured Inhibition, system Cryptococcus neoformans, for the compound shown: Cc1ccccc1Nc1ccccc1-c1ccc([N+](=O)[O-])cc1
Result block: -1.9

Query block: Enter measured Inhibition, system Cryptococcus neoformans, for the compound shown: COc1cc([N+](=O)[O-])ccc1-c1ccccc1Nc1ccccc1
Result block: -0.44

Query block: Enter measured Inhibition, system Cryptococcus neoformans, for the compound shown: O=[N+]([O-])c1ccc(-c2cccc3c2[nH]c2ccccc23)cc1
Result block: -0.08

Query block: Enter measured Inhibition, system Cryptococcus neoformans, for the compound shown: Cc1cc(C)c(Nc2ccccc2-c2ccc([N+](=O)[O-])cc2)c(C)c1
Result block: 1.01

Query block: Enter measured Inhibition, system Cryptococcus neoformans, for the compound shown: CC(=O)c1ccc(-c2ccccc2Nc2ccccc2)cc1
Result block: 0.86

Query block: Enter measured Inhibition, system Cryptococcus neoformans, for the compound shown: O=[N+]([O-])c1ccc(-c2ccccc2Nc2ccccc2)cc1
Result block: 1.06
